These data points were gathered from ChEMBL document CHEMBL3272270.

- measurement_description: Retardation factor, Rm of the compound by reversed phase partition chromatography
- Format: physicochemical
measure_name: Rm
Write the number on its own, no unit after it.

Rm measured on COCCS(=O)(=O)Nc1ccc(Nc2c3ccccc3nc3ccccc23)cc1.Cl = 0.21

Entry under test: CS(=O)(=O)Nc1ccc(Nc2c3ccccc3nc3ccccc23)cc1 . Its Rm was 0

// Rm value for COC(=O)NCCS(=O)(=O)Nc1ccc(Nc2c3ccccc3nc3ccccc23)cc1.Cl : 0.24

Value of Rm reported for the molecule CCCS(=O)(=O)Nc1ccc(Nc2c3ccccc3nc3c(C(=O)N[C@H]4[C@@H](OC)O[C@H](CO)[C@@H](O)[C@@H]4O)cccc23)c(OC)c1.Cl is -0.1

The recorded Rm for entry O=[N+]([O-])c1ccc2c(Nc3ccc(N4CCNCC4)cc3)c3ccccc3nc2c1 equals -0.81

Noted for Br.c1ccc2c(Nc3ccc(N4CCNCC4)cc3)c3ccccc3nc2c1 : its Rm reads -0.8

# Rm of COc1cc(NS(C)(=O)=O)ccc1Nc1c2ccccc2nc2ccccc12 [AMSACRINE] = 0.18

Rm reported for this molecule CCOC(=O)N1CCN(C(=O)Nc2ccc(Nc3c4ccccc4nc4ccccc34)cc2)CC1.Cl : 0.59

Entry Cl.NC(=O)NCCS(=O)(=O)Nc1ccc(Nc2c3ccccc3nc3ccccc23)cc1 ; Rm = -0.21

----------
- measurement_description: Half life in mouse L1210 cells allografted C3H/DBA2 F1 hybrid hybrid mouse
measure_name: half-life (min)
Provide the reading as a plain figure in min.

half-life measured on Nc1ccc(Nc2c3ccccc3nc3ccccc23)cc1 = 12

----------
- measurement_description: Retardation factor, Rm of the compound by reversed phase partition chromatography
- Format: physicochemical
measure_name: Rm
Lab note: jot down the number only; don't add units.

In plain terms, CC(=O)N(C)CCS(=O)(=O)Nc1ccc(Nc2c3ccccc3nc3ccccc23)cc1.Cl has a documented Rm of 0.05

The compound listed as CNC(=O)c1cccc2c(Nc3ccc(NS(C)(=O)=O)cc3OC)c3ccccc3nc12.Cl shows Rm equal to 0.06

Lab note: measured Rm of COc1cc(NS(C)(=O)=O)ccc1Nc1c2ccccc2nc2c(C(=O)N[C@H]3[C@@H](OC)O[C@H](CO)[C@@H](O)[C@@H]3O)cccc12.Cl was -0.57

// Cc1cc(NS(C)(=O)=O)ccc1Nc1c2ccccc2nc2c(OCC(O)CO)cccc12.Cl (centres undefined) : Rm value = -0.03

Lab book: Rm of Br.CS(=O)(=O)N(CC(O)CO)c1ccc(Nc2c3ccccc3nc3ccccc23)cc1 (centres undefined) noted as -0.03

// field: Rm; key: CC(=O)NCCS(=O)(=O)Nc1ccc(Nc2c3ccccc3nc3ccccc23)cc1.Cl ; value = -0.06

Record COc1ccc(Nc2c3ccccc3nc3cc([N+](=O)[O-])ccc23)cc1.Cl . Reported Rm: 0.49

Note to self: Rm recorded for Cl.O=C(Nc1ccc(Nc2c3ccccc3nc3ccccc23)cc1)OCC(O)CO (centres undefined) was -0.06

response.value for Br.CN1CCN(c2ccc(Nc3c4ccccc4nc4ccccc34)cc2)CC1 (field: Rm) = -0.68

----------
Please go through the items and note down their Rm.
- measurement_description: Retardation factor, Rm of the compound by reversed phase partition chromatography
- Format: physicochemical
Format: numeric value only, no unit, no commentary.

Kindly note the recorded Rm for CC(=O)NCCCS(=O)(=O)Nc1ccc(Nc2c3ccccc3nc3ccccc23)cc1.Cl , which is -0.01

Form field Rm, entry COc1cc(NS(C)(=O)=O)ccc1Nc1c2ccccc2nc2c(C(=O)N(C)C)cccc12.Cl : 0.09

Entry Br.COc1cc(NS(C)(=O)=O)ccc1Nc1c2ccccc2nc2c(CCC(N)=O)cccc12 , Rm reported as -0.17

molecule COC(=O)CCS(=O)(=O)Nc1ccc(Nc2c3ccccc3nc3ccccc23)cc1.Cl , Rm observed: 0.57

According to the records, this molecule Br.COc1cc(NS(C)(=O)=O)ccc1Nc1c2ccccc2nc2cc(CCC(N)=O)ccc12 displays Rm of -0.25

Entry CC(CS(=O)(=O)Nc1ccc(Nc2c3ccccc3nc3ccccc23)cc1)C(N)=O.Cl (centres undefined) ; Rm = -0.11

Measured Rm, COC(=O)NNC(=O)Nc1ccc(Nc2c3ccccc3nc3ccccc23)cc1.Cl : -0.04

Query CNC(=O)Nc1ccc(Nc2c3ccccc3nc3ccccc23)cc1 yields Rm of 0.25

Entry Cl.O=C1CNC(=O)N1CCS(=O)(=O)Nc1ccc(Nc2c3ccccc3nc3ccccc23)cc1 , Rm reported as -0.19

----------
So I've got a bunch of compounds here, and I need their Rm values.
- measurement_description: Retardation factor, Rm of the compound by reversed phase partition chromatography
- Format: physicochemical
Output: the number by itself.

Just so you know, measured Rm for CNC(=O)Nc1ccc(Nc2c3ccccc3nc3ccccc23)c(OC)c1.Cl came out at 0.51

COc1cc(NS(C)(=O)=O)ccc1Nc1c2ccc(I)cc2nc2c(OCC(O)CO)cccc12.Cl (stereo not given) yielded Rm of 0.06

Record COc1cc(NS(C)(=O)=O)ccc1Nc1c2ccccc2nc2c(C(=O)NCC(O)CO)cccc12.Cl (stereo not given) . Reported Rm: -0.36

# compound COc1ccc(Nc2c3ccccc3nc3cc(N)ccc23)cc1.Cl ; its Rm = 0.31

get_value(item= COc1cc(NS(C)(=O)=O)ccc1Nc1c2ccccc2nc2c(C(N)=O)cccc12.Cl , readout=Rm) returns -0.27

----------
- Test system: Mus musculus
- measurement_description: Toxicity in sc implanted mouse L1210 cells allografted C3H/DBA2 F1 hybrid hybrid mouse assessed as optimum dose required to increase life span treated ip after 24 hrs after tumor inoculation and continued for 5 days
- Format: organism-based
- test_parameters: in vivo
measure_name: log10 Activity (log10 of the value in mg/kg)
# values: log10(Activity), units mg/kg

In plain terms, Br.CN1CCN(c2ccc(Nc3c4ccccc4nc4cc([N+](=O)[O-])ccc34)cc2)CC1 has a documented log10 Activity of 1.78

Item: CC(=O)N1CCN(c2ccc(Nc3c4ccccc4nc4ccccc34)cc2)CC1.Cl | log10 Activity: 1.88

Just so you know, measured log10 Activity for COc1cc(NS(C)(=O)=O)ccc1Nc1c2ccccc2nc2ccccc12 [AMSACRINE] came out at 0.83

COc1cc(NS(C)(=O)=O)ccc1Nc1c2ccccc2nc2c(C(=O)N(C)C)cccc12.Cl has a reported log10 Activity of 1.18

Data point: COc1cc(NS(C)(=O)=O)ccc1Nc1c2ccccc2nc2c(C(=O)NCC(N)=O)cccc12.Cl ; log10 Activity = 1.79

Form: compound = Cl.O=C(O)CCS(=O)(=O)Nc1ccc(Nc2c3ccccc3nc3ccccc23)cc1 ; log10 Activity = 2.54

Value of measured log10 Activity for the entry CC(CS(=O)(=O)Nc1ccc(Nc2c3ccccc3nc3ccccc23)cc1)C(N)=O.Cl (stereo not drawn) : 1.70

Form field log10 Activity, entry CC(=O)N(C)CCS(=O)(=O)Nc1ccc(Nc2c3ccccc3nc3ccccc23)cc1.Cl : 2.30

----------
- Test system: L1210
- measurement_description: Antileukemic activity against ip implanted mouse L1210 cells in C3H/DBA2 F1 hybrid hybrid mouse assessed as increase life span treated ip after 24 hrs after tumor inoculation and continued for 5 days
- Assay type: functional
Answer each item with its documented ILS.
Hi! Could you send only the number? It should be in %, unit omitted.

ILS reading for COC(=O)NCCS(=O)(=O)Nc1ccc(Nc2c3ccccc3nc3ccccc23)cc1.Cl : 67

Recorded ILS (compound CC(=O)NCCS(=O)(=O)Nc1ccc(Nc2c3ccccc3nc3ccccc23)cc1.Cl ): 94

Item: CS(=O)(=O)N1CCN(c2ccc(Nc3c4ccccc4nc4ccccc34)cc2)CC1.Cl | ILS: 69

Consider Cl.O=C1CNC(=O)N1CCS(=O)(=O)Nc1ccc(Nc2c3ccccc3nc3ccccc23)cc1 . Its measured ILS is 51

Reported ILS for Cl.NC(=O)NCCS(=O)(=O)Nc1ccc(Nc2c3ccccc3nc3ccccc23)cc1 was 53

According to the records, this compound COc1ccc(Nc2c3ccccc3nc3cc(N)ccc23)cc1.Cl displays ILS of 66

In plain terms, CC(=O)N1CCN(c2ccc(Nc3c4ccccc4nc4ccccc34)cc2)CC1.Cl has a documented ILS of 81

Short answer for CCCS(=O)(=O)Nc1ccc(Nc2c3ccccc3nc3c(C(=O)N[C@H]4[C@@H](OC)O[C@H](CO)[C@@H](O)[C@@H]4O)cccc23)c(OC)c1.Cl : ILS was 180

ILS for Cl.NC(=O)N1CCN(c2ccc(Nc3c4ccccc4nc4ccccc34)cc2)CC1 is 78

ILS in this record for CC(=O)N(C)CCS(=O)(=O)Nc1ccc(Nc2c3ccccc3nc3ccccc23)cc1.Cl : 54

// sample COc1ccc(Nc2c3ccccc3nc3cc([N+](=O)[O-])ccc23)cc1.Cl , its ILS was 33

The reported value for CNC(=O)Nc1ccc(Nc2c3ccccc3nc3ccccc23)cc1 in terms of ILS is 112

Recorded ILS (compound COC(=O)NNC(=O)Nc1ccc(Nc2c3ccccc3nc3ccccc23)cc1.Cl ): 67

Field ILS (entry CN(C)C(=O)CCS(=O)(=O)Nc1ccc(Nc2c3ccccc3nc3ccccc23)cc1.Cl ) reads 63

The compound COc1cc(NS(C)(=O)=O)ccc1Nc1c2ccccc2nc2c(C(=O)N[C@H]3[C@@H](OC)O[C@H](CO)[C@@H](O)[C@@H]3O)cccc12.Cl showed ILS equal to 100

Data point: Cl.O=C1CCS(=O)(=O)N1c1ccc(Nc2c3ccccc3nc3ccccc23)cc1 ; ILS = 33

Record COc1cc(NS(C)(=O)=O)ccc1Nc1c2ccccc2nc2c(C(N)=O)cccc12.Cl , field ILS: 140

Input Cl.NC(=O)CCS(=O)(=O)Nc1ccc(Nc2c3ccccc3nc3ccccc23)cc1 . Output ILS: 67

Value of ILS reported for the compound COc1cc(NS(C)(=O)=O)ccc1Nc1c2ccccc2nc2c(C(=O)NCC(O)CO)cccc12.Cl (stereo not given) is 72

Value of measured ILS for the entry CCOC(=O)N1CCN(C(=O)Nc2ccc(Nc3c4ccccc4nc4ccccc34)cc2)CC1.Cl : 29

Reported ILS of Cl.O=C(Nc1ccc(Nc2c3ccccc3nc3ccccc23)cc1)OCC(O)CO (stereo not given) : 63
